experiment: Solubility in different cosolvents; assay type: physicochemical; details: 5% sulfobutylether β-cyclodextrin in purified water, aqueous with cosolvent or surfactant or cyclodextrin
Would you mind telling me the reported solubility of each entry?

MOLECULE | OUTCOME MEASURE | READOUT VALUE
OCc1cc([C@@H](O)CNCCCCCCOCCOCc2c(Cl)cccc2Cl)ccc1O [VT] | solubility | 370 µg/mL

Next molecule, solubility to be filled in.
-- ask Look up solubility for this molecule: OC(c1ccccc1)(c1ccccc1)C12CC[N+](CCOCc3ccccc3)(CC1)CC2.[Br-] [UB]
-- reply 3560 µg/mL

###

Provide the recorded solubility for the entries that follow.
test: Solubility in different cosolvents; assay type: physicochemical; settings: 5% tween-80 in purified water, aqueous with cosolvent or surfactant or cyclodextrin; 5% tween -80
Write the quantity with the unit trailing the number.

MOLECULE | solubility
OCc1cc([C@@H](O)CNCCCCCCOCCOCc2c(Cl)cccc2Cl)ccc1O [VT] | 1370 µg/mL

As a next step, examine the molecule that follows.
-- ask For the molecule shown here, OC(c1ccccc1)(c1ccccc1)C12CC[N+](CCOCc3ccccc3)(CC1)CC2.[Br-] [UB] , give the reported solubility.
-- reply 3540 µg/mL
